compounds and their reported log10 of CC50
Tested on: human liver carcinoma (HepG2) cells
Test: MTT cytotoxicity, HepG2 cells
Type: cell-based
Conditions: HepG2 cells
Parameter value (number): base-10 log of CC50 in µM.

// worked examples, log10 of CC50 included
compound	testSystem	log10 of CC50
CC(N)c1ccc(-c2ccc(F)cc2)cc1 (stereo not shown)	human liver carcinoma (HepG2) cells	1.09
COc1ccc(F)c(Cn2cnc(-c3ccccc3)c2-c2c[nH]cn2)c1F	human liver carcinoma (HepG2) cells	1.38
COc1cc(OC)c2cc(-c3nc4ccccc4[nH]3)c(-c3ccc(C)cc3)nc2c1	human liver carcinoma (HepG2) cells	1.80
Oc1c(C(Nc2ccccc2)c2ccccc2)ccc2cccnc12 (stereo not shown)	human liver carcinoma (HepG2) cells	1.53
c1ccc(Cn2cc(-c3cccnc3)c(-c3nc(-c4ccccc4)c(-c4ccccc4)[nH]3)n2)cc1	human liver carcinoma (HepG2) cells	1.20

Ask: What measured log10 of CC50 goes with CCN(CC)CCCNc1cc(OC)c(Nc2ccccc2)c2cccnc12 ?
Result: 1.23

Ask: Request the reported log10 of CC50 associated with Cc1nc2ccccc2nc1-c1sc2ncccc2c1O
Result: 1.38

====

Tested on: human peripheral blood mononuclear (PBM) cells
Assay: MTT cytotoxicity, PBM cells
Format: cell-based
Settings: 100 µM
Measured percent cytotoxicity (cell growth inhibition) at 100 µM by item

structureNotation	testResult
CCOC(=O)c1cc(-c2cc(C(=O)OCC)c3ccccc3n2)nc2ccccc12	5.6%
NCCCC(=O)NCc1nc(-c2cccc(F)c2)c(-c2ccccn2)[nH]1	41%
O=C(NCc1ccc(-c2cccnc2)nc1)c1ccc2nccnc2c1	20%
COc1ccc(F)c(Cn2cnc(-c3ccccc3)c2-c2c[nH]cn2)c1F	24%

API: the following record is the query input.
Ask: Fill blank: measured percent cytotoxicity (cell growth inhibition) at 100 µM of the molecule Cc1nc2ccccc2nc1-c1sc2ncccc2c1O is ____.
Result: 48%

====

Test system: HBV DNA replication in HepAD38 cells
Assay: HBV DNA replication inhibition assay in HepAD38 cells (7 days, PCR of supernatant DNA)
Assay type: cell-based, hepatitis B virus
Conditions: HepAD38 cells, 10 μM, trial 1
Experimental: HepAD38 cells were seeded at 50,000 cells/well in collagen-coated 96-well plates. […] The experiment lasted 7 days. On day 7, total DNA was purified from the supernatant using a commercially available kit (DNeasy 96 Blood & Tissue kit, Qiagen). The HBV DNA was amplified in a polymerase chain reaction assay using LightCycler 480 II (Roche), as previously described.[63] All samples were tested in duplicate.
Measured % HBV DNA Inh. at 10 μM, trial 1, listed per entry for reference.
Give just the numeric value; % need not be written.

Ask: GET /values?readout=% HBV DNA Inh. at 10 μM, trial 1&item= CCN(CC)CCCNc1cc(OC)c(Nc2ccccc2)c2cccnc12
Result: 45

Ask: Which value of % HBV DNA Inh. at 10 μM, trial 1 has been reported for Cc1ccc(-c2nc(CNC(=O)C3CCOC3)[nH]c2-c2ccccn2)cc1 (stereo not shown) in the records?
Result: 4.7

Ask: What does the record list as % HBV DNA Inh. at 10 μM, trial 1 for COc1ccc(F)c(Cn2cnc(-c3ccccc3)c2-c2c[nH]cn2)c1F ?
Result: 45

====

CC50 values by entry
System: African green monkey kidney (Vero) cells
Experiment: MTT cytotoxicity, Vero cells
Format: cell-based
Settings: Vero cells

compound	CC50
O=C(CC1C=Cc2ccccc2N1C(=O)c1ccccc1)c1ccccc1 (stereo not drawn) [GT-8]	> 100 µM

Ask: // returns reported CC50 for input Cc1ccc(C(N)c2ccncc2)cc1 (stereo not drawn) [GT-20]
Result: > 100 µM

Ask: For the compound NCc1ccc(-c2ccccc2F)o1 [GT-19] , what CC50 is on record?
Result: > 100 µM

====

Test system: African green monkey kidney (Vero) cells
Assay: MTT cytotoxicity, Vero cells
Format: cell-based
Details: Vero cells
Quick list: CC50 per entry.

compound	CC50
CC(=O)N1CCC(NCc2nc(-c3ccc(C)cc3)c(-c3ccccn3)[nH]2)CC1 [GT-44]	> 100 µM
CC(NC(=O)c1cccnc1)c1ccccc1 (stereo not drawn) [GT-18]	> 100 µM

Now examine the next entry.
Ask: Quick one: CC50 for Cc1ccc(CC#N)c(-c2c(CC#N)ccc(C)c2C)c1C [GT-9] ?
Result: > 100 µM

====

Tested on: T lymphoblast CEM-CCRF (CEM) cells
Experiment: MTT cytotoxicity, CEM cells
Type: cell-based, human
Known CC50 of a selection of compounds

Previously resolved entries follow.
compound	CC50
CC(NC(=O)c1ccccc1)c1ccccn1 (stereo not drawn)	> 100 µM
O=C(CC1C=Cc2ccccc2N1C(=O)c1ccccc1)c1ccccc1 (stereo not drawn)	> 100 µM

Ask: Value lookup for CC50; key = Cc1ccc(CC#N)c(-c2c(CC#N)ccc(C)c2C)c1C
Result: > 100 µM

====

Test system: human liver carcinoma (HepG2) cells
Assay: MTT cytotoxicity, HepG2 cells
Type: cell-based
Details: HepG2 cells
Experimental: Human peripheral blood mononuclear (PBM), T lymphoblast CEM-CCRF (herein referred to as CEM cells), African green monkey kidney (Vero), or human liver carcinoma (HepG2) cells were tested via MTT assay using the CellTiter 96 Non-Radioactive Cell Proliferation (Promega) kit as previously described.[63]
propertyMeasured: CC50

Completed entries (count: 3):
compound	propertyMeasured	testResult
CC(NC(=O)c1ccccc1)c1ccccn1 (stereo not drawn) [GT-25]	CC50	> 100 µM
CC(O)(c1ccccc1)C(c1ccccc1)C1CCCCN1 (stereo not drawn) [GT-4]	CC50	> 100 µM
Fc1ccccc1CNCc1ccccn1 [GT-14]	CC50	> 100 µM

Ask: Which value of CC50 has been reported for CNc1cc(C#N)nc(-c2ccccc2)n1 [GT-28] in the records?
Result: > 100 µM

Ask: Request the reported CC50 associated with Cc1nc(-c2ccccc2)c(Cc2ccccc2O)c(=O)[nH]1 [GT-7]
Result: > 100 µM

Ask: What value of CC50 has been reported for the following compound? NCc1ccc(-c2ccccc2F)o1 [GT-19]
Result: > 100 µM

Ask: // lookup CC50 for O=C(NCCn1ccnc1)c1ccccn1 [GT-26]
Result: > 100 µM

Ask: Look up CC50 for this compound: CC(NC(=O)c1cccnc1)c1ccccc1 (stereo not drawn) [GT-18]
Result: > 100 µM

Ask: # get_value(readout='CC50', item= O=C(CC1C=Cc2ccccc2N1C(=O)c1ccccc1)c1ccccc1 (stereo not drawn) [GT-8] )
Result: > 100 µM

====

System: human liver carcinoma (HepG2) cells
Assay: MTT cytotoxicity, HepG2 cells
Assay type: cell-based
Conditions: HepG2 cells
Procedure: Human peripheral blood mononuclear (PBM), T lymphoblast CEM-CCRF (herein referred to as CEM cells), African green monkey kidney (Vero), or human liver carcinoma (HepG2) cells were tested via MTT assay using the CellTiter 96 Non-Radioactive Cell Proliferation (Promega) kit as previously described.[63]
Field: label. Allowed values: Yes (CC50 < 30 µM) or No (CC50 >= 30 µM).

compound	categoryLabel
NCc1ccc(N2CCC(CO)CC2)cc1	No
NCc1cccc(Oc2ccccc2)c1 [GT-12]	No

Ask: Say whether its CC50 is strictly beneath 30 µM. Entry: O=C(NCc1cccnc1)C1CCNCC1
Result: No

Ask: Is CC50 strictly under 30 µM for the entry OC(Cn1cnc(-c2ccccc2)c1-c1cc2ccccc2[nH]1)c1cccnc1 (stereo not drawn) ?
Result: Yes

Ask: Strictly below 30 µM in CC50? O=C(Cc1ccc(O)cc1)NCc1nc(-c2cccc(F)c2)c(-c2ccccn2)[nH]1
Result: Yes

Ask: Could you please tell me whether CC50 recorded for Cc1ccc(-c2nc(CNC(=O)C3CCOC3)[nH]c2-c2ccccn2)cc1 (stereo not drawn) is less than 30 µM?
Result: Yes

Ask: Here's an entry: COc1ccc(-c2cc(C(=O)Oc3cccc(-c4cnc5ccccc5n4)c3)c3ccccc3n2)cc1 . Is its CC50 below 30 µM?
Result: No

Ask: Could you please tell me whether CC50 recorded for CCC(CO)Nc1nc2ccc(Cl)cc2c2ccccc12 (stereo not drawn) is less than 30 µM?
Result: Yes

====

System: human liver carcinoma (HepG2) cells
Assay: MTT cytotoxicity, HepG2 cells
Type: cell-based
Conditions: HepG2 cells
propertyMeasured: CC50 (µM)
Supply the numeric figure in µM, leaving out any unit text.

Solved cases (5 shown):
compound	testResult
Cc1cc(-c2ccccc2)nc(C#N)c1C#N [GT-27]	41.7
N#CC(c1ccccc1)C(C(Cc1ccccc1)=NO)c1ccccc1 (stereo not shown) [GT-11]	31.6
Clc1ccccc1C=Cc1ccnc2ccccc12 [GT-3]	51.2
O=C(NCCN1CCOCC1)c1ccc2nc(-c3ccccc3)c(-c3ccccc3)nc2c1 [GT-36]	29
CC(CC(C#N)(c1ccccc1)c1ccccc1)N1CCCCC1 (stereo not shown) [GT-2]	26.4

Consider the record given below.
Ask: // returns reported CC50 for input Cc1c(CCN)ccc2c1[nH]c1ccccc12 [GT-6]
Result: 14.9
